# Tested on: C-33-A (Cervical Carcinoma)
# assay comment: combination Emax (second highest fraction inhibited in the dose matrix, 72 h); higher = more inhibition; extreme values may be limits of the assay
# cutoff 0.9 applies to combination Emax; >= gives yes (1), < gives no (0)

Cc1cc2ncnn2cc1Nc1ncc2c(n1)n(C1CCOCC1)c(=O)n2C [AZD7648] + COc1cc([C@@H]2c3cc4c(cc3[C@@H](O[C@@H]3O[C@@H]5CO[C@@H](C)O[C@H]5[C@H](O)[C@H]3O)[C@H]3COC(=O)[C@H]23)OCO4)cc(OC)c1O [Etoposide] (first compound max 10 µM, 7x7, partner max 10 µM) | yes (1)
Cc1cc2ncnn2cc1Nc1ncc2c(n1)n(C1CCOCC1)c(=O)n2C [AZD7648] + CCN(CCO)CCCOc1ccc2c(Nc3cc(CC(=O)Nc4cccc(F)c4)[nH]n3)ncnc2c1 [AZD2811] (first compound max 10 µM, 7x7, partner max 1 µM) | no (0)
CN(CCO)CC[C@H](CSc1ccccc1)Nc1ccc(S(=O)(=O)NC(=O)c2ccc(N3CCC([C@@H](O)c4ccccc4-c4ccc(Cl)cc4)CC3)cc2)cc1S(=O)(=O)C(F)(F)F [AZD4320] + CC(=O)O[C@H]1C(=O)[C@@]2(C)[C@H]([C@H](OC(=O)c3ccccc3)[C@]3(O)C[C@H](OC(=O)[C@H](O)[C@@H](NC(=O)c4ccccc4)c4ccccc4)C(C)=C1C3(C)C)[C@]1(OC(C)=O)CO[C@@H]1C[C@@H]2O [Paclitaxel] (first compound max 1 µM, 7x7, partner max 3 µM) | yes (1)
CC1(C)CCC(CN2CCN(c3ccc(C(=O)NS(=O)(=O)c4ccc(NCC5CCOCC5)c([N+](=O)[O-])c4)c(Oc4cnc5[nH]ccc5c4)c3)CC2)=C(c2ccc(Cl)cc2)C1 [Venetoclax] + Cc1cc2ncnn2cc1Nc1ncc2c(n1)n(C1CCOCC1)c(=O)n2C [AZD7648] (first compound max 1 µM, 7x7, partner max 10 µM) | no (0)

Now examine the next entry.
Would you say COc1cccc(OCCCN)c1-c1cc(Nc2cnc(C#N)cn2)n[nH]1 [Prexasertib] + O=C(c1cc(Cc2n[nH]c(=O)c3ccccc23)ccc1F)N1CCN(C(=O)C2CC2)CC1 [Olaparib] (first compound max 1 µM, 7x7, partner max 10 µM) shows combination Emax at minimum 0.9?
no (0)

###

# Test system: SNU-423 (Hepatocellular Carcinoma)
# assay comment: Bliss excess, mean over the matrix (fraction); higher = more synergy
Bliss excess overview
Just the number, please, no unit after it.

Answered examples (2):
Cc1c2c(nn1C)CSCc1cc(n(C)n1)CSc1cc(c3ccccc3c1)OCCCc1c(C(=O)O)n(C)c3c-2c(Cl)ccc13 [AZD5991] + CN(C)CCCOc1ccc(-c2ccc3ncc4c(c3c2)n(C2CCOCC2)c(=O)n4C)cn1 [AZD0156] (first compound max 1 µM, 7x7, partner max 1 µM) | -0.0259
CC1(C)CCC(CN2CCN(c3ccc(C(=O)NS(=O)(=O)c4ccc(NCC5CCOCC5)c([N+](=O)[O-])c4)c(Oc4cnc5[nH]ccc5c4)c3)CC2)=C(c2ccc(Cl)cc2)C1 [Venetoclax] + Cn1cnc2c(F)c(Nc3ccc(Br)cc3Cl)c(C(=O)NOCCO)cc21 [Selumetinib] (first compound max 1 µM, 7x7, partner max 3 µM) | -0.11

Checklist item: Bliss excess tested on SNU-423 (Hepatocellular Carcinoma), entry Cc1c2c(nn1C)CSCc1cc(n(C)n1)CSc1cc(c3ccccc3c1)OCCCc1c(C(=O)O)n(C)c3c-2c(Cl)ccc13 [AZD5991] + C=CCn1c(=O)c2cnc(Nc3ccc(N4CCN(C)CC4)cc3)nc2n1-c1cccc(C(C)(C)O)n1 [AZD1775] (first compound max 1 µM, partner max 1 µM) , value?
-0.0976

###

Bliss excess overview
# System: PA-TU-8988T (Pancreatic Carcinoma)
# assay comment: Bliss excess, mean over the matrix (fraction); higher = more synergy

Answered examples (2):
Cn1cnc2c(F)c(Nc3ccc(Br)cc3Cl)c(C(=O)NOCCO)cc21 [Selumetinib] + C=CCn1c(=O)c2cnc(Nc3ccc(N4CCN(C)CC4)cc3)nc2n1-c1cccc(C(C)(C)O)n1 [AZD1775] (first compound max 10 µM, partner max 1 µM) | -0.0202
COc1nnc2ccc(N3CCC(c4ccc(OCCN5CCN(C)C(=O)[C@H]5C)cc4)CC3)nn12 [AZD5153] + CC1(C)CCC(CN2CCN(c3ccc(C(=O)NS(=O)(=O)c4ccc(NCC5CCOCC5)c([N+](=O)[O-])c4)c(Oc4cnc5[nH]ccc5c4)c3)CC2)=C(c2ccc(Cl)cc2)C1 [Venetoclax] (first compound max 1 µM, 7x7, partner max 1 µM) | -0.0254

Here is the next item to consider.
Fill in the blank: the reported Bliss excess of C=CCn1c(=O)c2cnc(Nc3ccc(N4CCN(C)CC4)cc3)nc2n1-c1cccc(C(C)(C)O)n1 [AZD1775] + C1CN(CCC1(C(=O)N[C@@H](CCO)C2=CC=C(C=C2)Cl)N)C3=NC=NC4=C3C=CN4 [Capivasertib] (first compound max 3 µM, partner max 3 µM) is ____.
-0.0264

###

combination Emax overview
# Test system: SCC-4 (Oral Cavity Carcinoma)
# assay comment: combination Emax (second highest fraction inhibited in the dose matrix, 72 h); higher = more inhibition; extreme values may be limits of the assay
Just the number, please, no unit after it.

Answered examples (2):
CN(CCO)CC[C@H](CSc1ccccc1)Nc1ccc(S(=O)(=O)NC(=O)c2ccc(N3CCC([C@@H](O)c4ccccc4-c4ccc(Cl)cc4)CC3)cc2)cc1S(=O)(=O)C(F)(F)F [AZD4320] + C[C@@H](Nc1cc(F)cc(F)c1)c1cc(C(=O)N(C)C)cc2c(=O)cc(N3CCOCC3)oc12 [AZD8186] (first compound max 1 µM, 7x7, partner max 3 µM) | 0.765
C[C@@H](c1ccc2nccn2c1)n1nnc2ncc(-c3cnn(C)c3)nc21 [Savolitinib] + CC1(C)CCC(CN2CCN(c3ccc(C(=O)NS(=O)(=O)c4ccc(NCC5CCOCC5)c([N+](=O)[O-])c4)c(Oc4cnc5[nH]ccc5c4)c3)CC2)=C(c2ccc(Cl)cc2)C1 [Venetoclax] (first compound max 1 µM, 7x7, partner max 1 µM) | 0.101

Here is the next item to consider.
Fill in the blank: the reported combination Emax of CC1(C)CCC(CN2CCN(c3ccc(C(=O)NS(=O)(=O)c4ccc(NCC5CCOCC5)c([N+](=O)[O-])c4)c(Oc4cnc5[nH]ccc5c4)c3)CC2)=C(c2ccc(Cl)cc2)C1 [Venetoclax] + CS(=O)(=O)CCNCc1ccc(-c2ccc3ncnc(Nc4ccc(OCc5cccc(F)c5)c(Cl)c4)c3c2)o1 [Lapatinib] (first compound max 1 µM, 7x7, partner max 10 µM) is ____.
0.368

###

# Tested on: MONO-MAC-6 (Acute Myeloid Leukemia)
# assay comment: Bliss excess, mean over the matrix (fraction); higher = more synergy
Bliss excess overview
Just the number, please, no unit after it.

Answered examples (2):
C[C@@H]1COCCN1c1cc(C2([S@](C)(=N)=O)CC2)nc(-c2ccnc3[nH]ccc23)n1 [AZD6738] + C1CC(C1)(C(=O)[O-])C(=O)[O-].N.N.[Pt+2] [Carboplatin] (first compound max 10 µM, 7x7, partner max 10 µM) | -0.0075
CN(C)CCCOc1ccc(-c2ccc3ncc4c(c3c2)n(C2CCOCC2)c(=O)n4C)cn1 [AZD0156] + C[C@@H]1COCCN1C2=NC(=NC(=C2)C3(CC3)[S@](=N)(=O)C)C4=C5C=CNC5=NC=C4 [AZD6738] (first compound max 1 µM, 7x7, partner max 10 µM) | -0.0253

Fill in the blank: the reported Bliss excess of NC1(C(=O)N[C@@H](CCO)c2ccc(Cl)cc2)CCN(c2ncnc3[nH]ccc23)CC1 [Capivasertib] + Cn1cnc2c(F)c(Nc3ccc(Br)cc3Cl)c(C(=O)NOCCO)cc21 [Selumetinib] (first compound max 10 µM, 7x7, partner max 10 µM) is ____.
0.0394

Fill in the blank: the reported Bliss excess of COc1cc2c(cc1OCCCCCOc1cc3c(cc1OC)C(=O)N1C=C(C)C[C@H]1C=N3)N=C[C@@H]1CC(C)=CN1C2=O [SG3199] + O=C(c1cc(Cc2n[nH]c(=O)c3ccccc23)ccc1F)N1CCN(C(=O)C2CC2)CC1 [Olaparib] (first compound max 0.001 µM, 7x7, partner max 10 µM) is ____.
-0.015

Fill in the blank: the reported Bliss excess of CC(=O)c1c(C)c2cnc(Nc3ccc(N4CCNCC4)cn3)nc2n(C2CCCC2)c1=O [Palbociclib] + CC1(C)CCC(CN2CCN(c3ccc(C(=O)NS(=O)(=O)c4ccc(NCC5CCOCC5)c([N+](=O)[O-])c4)c(Oc4cnc5[nH]ccc5c4)c3)CC2)=C(c2ccc(Cl)cc2)C1 [Venetoclax] (first compound max 10 µM, 7x7, partner max 1 µM) is ____.
0.0129
